- STUDY_SYSTEM: recombinant HDAC1 (Homo sapiens, UniProt Q13547)
- Sequence (Q13547 whole entry): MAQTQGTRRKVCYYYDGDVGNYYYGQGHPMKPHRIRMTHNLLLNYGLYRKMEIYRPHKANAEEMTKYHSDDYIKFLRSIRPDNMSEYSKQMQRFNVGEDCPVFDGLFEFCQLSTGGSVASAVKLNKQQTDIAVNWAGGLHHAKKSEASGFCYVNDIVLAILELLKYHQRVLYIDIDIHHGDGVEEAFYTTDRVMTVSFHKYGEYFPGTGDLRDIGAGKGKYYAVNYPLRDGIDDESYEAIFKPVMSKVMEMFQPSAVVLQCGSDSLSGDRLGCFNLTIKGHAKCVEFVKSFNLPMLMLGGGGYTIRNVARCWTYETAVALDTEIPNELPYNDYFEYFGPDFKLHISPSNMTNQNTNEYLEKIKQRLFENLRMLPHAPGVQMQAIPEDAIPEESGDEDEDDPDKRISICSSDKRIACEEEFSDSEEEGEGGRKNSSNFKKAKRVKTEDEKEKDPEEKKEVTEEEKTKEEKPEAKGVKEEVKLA
- ASSAY_PROCEDURE: biochemical
MEASURED_ENDPOINT: IC50

Problem: Param item = `O=C(CCCCCC(=O)NN=Cc1ccc(-c2ccccc2)cc1)NO` ; retrieve measured IC50.
Result: 0.7 nM

* * *

- STUDY_SYSTEM: recombinant HDAC5 (Homo sapiens, UniProt Q9UQL6)
- Sequence (Q9UQL6 whole entry): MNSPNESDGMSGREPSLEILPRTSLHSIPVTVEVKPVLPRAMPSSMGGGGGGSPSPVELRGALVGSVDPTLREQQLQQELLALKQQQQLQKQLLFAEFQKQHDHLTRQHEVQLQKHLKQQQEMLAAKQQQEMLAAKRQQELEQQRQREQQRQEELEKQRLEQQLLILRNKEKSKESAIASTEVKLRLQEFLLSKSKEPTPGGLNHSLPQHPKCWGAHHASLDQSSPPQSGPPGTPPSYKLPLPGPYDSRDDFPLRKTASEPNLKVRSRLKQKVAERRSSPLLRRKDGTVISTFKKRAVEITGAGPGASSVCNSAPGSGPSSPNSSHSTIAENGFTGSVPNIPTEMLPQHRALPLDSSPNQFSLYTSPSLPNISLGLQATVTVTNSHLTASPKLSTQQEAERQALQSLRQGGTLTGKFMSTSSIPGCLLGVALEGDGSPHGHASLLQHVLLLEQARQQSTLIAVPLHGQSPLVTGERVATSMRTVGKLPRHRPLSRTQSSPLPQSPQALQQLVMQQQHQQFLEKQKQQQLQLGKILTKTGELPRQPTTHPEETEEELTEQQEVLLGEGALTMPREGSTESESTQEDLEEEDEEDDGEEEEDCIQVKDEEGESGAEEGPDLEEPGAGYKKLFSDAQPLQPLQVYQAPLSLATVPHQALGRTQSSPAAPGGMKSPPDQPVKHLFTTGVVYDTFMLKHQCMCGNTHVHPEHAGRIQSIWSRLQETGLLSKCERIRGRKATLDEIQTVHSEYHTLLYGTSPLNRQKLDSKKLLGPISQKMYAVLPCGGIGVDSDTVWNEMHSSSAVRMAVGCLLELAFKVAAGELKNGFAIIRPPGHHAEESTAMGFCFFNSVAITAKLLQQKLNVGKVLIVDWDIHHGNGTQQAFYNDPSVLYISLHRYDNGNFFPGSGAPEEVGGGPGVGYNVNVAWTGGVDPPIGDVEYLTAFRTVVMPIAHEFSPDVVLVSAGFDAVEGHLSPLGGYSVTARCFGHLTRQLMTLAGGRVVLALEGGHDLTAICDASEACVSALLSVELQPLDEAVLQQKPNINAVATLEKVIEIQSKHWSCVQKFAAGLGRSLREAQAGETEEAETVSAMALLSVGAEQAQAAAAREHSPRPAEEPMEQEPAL
- ASSAY_PROCEDURE: In vitro HDAC enzymatic assay, HDAC5
- EXPERIMENTAL_SETUP: read-out: IC50 for inhibition of enzymatic activity of HDAC5; Class IIa
pIC50: −log10 of the molar value.
MEASURED_ENDPOINT: pIC50

Problem: Find pIC50 (recombinant HDAC5 (Homo sapiens, UniProt Q9UQL6)) for the entry `O=C(CCCCCC(=O)NN=Cc1ccc(-c2ccccc2)cc1)NO`
Result: < 5.70

Origin of the recorded values: paper PMC3447535
